B1: glmS ribozyme (parent)
chain: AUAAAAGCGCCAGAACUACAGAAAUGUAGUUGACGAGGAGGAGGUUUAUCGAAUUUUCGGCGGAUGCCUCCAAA

- Variants of: B1
- protocol_text: self-cleavage kobs at 640 uM GlcN6P; higher = faster cleavage; RNA array
- applied_conditions: with glucosamine-6-phosphate
Variants at the floor of the assay were thinned out.
parameter_measured: self-cleavage kobs at 640 uM GlcN6P

sequence	self-cleavage kobs at 640 uM GlcN6P
AUAAAAGCGCCAGAACUACAGAAAUGUAGUUUACGUGGAGGAGGUGUUUCGAAUUCUCGUUGGAUGCCUCCAAA [G32U A36U U46G A48U U56C G60U C61U]	< 1e-05 s⁻¹
AUAAAAGCGCCAGAACUACAGAAAUGUAGUUGCCGAGGAGGAGGUUUAUCGAAUUUUCGGCCGAUGCCUCCAAA [A33C G62C]	< 1e-05 s⁻¹
AUAAAAGUUCCAGAACUACAGAAAUGUAGUUGACGAGGAGGAGGUUUAUCGAAUUUUCGGCGGAUGCAUCCAAA [C8U G9U C68A]	< 1e-05 s⁻¹
AUAAAAGCGCCAGAACUACAGAAAUGUAGUUGACGAGGAGGAGGUUUACCGAAUUUUCGGCGGAUGCCUUCAAA [U49C C70U]	< 1e-05 s⁻¹
AUAAAAGCGCCAGAGCUACAGAAAUGUAGUUGACGAGGAGGAGGUUUAUCGAAUUAUCGGCGGAUGCCUCCAAA [A15G U56A]	0.00267 s⁻¹
AUAAAAGCGCCAGAAUUACAGAAAUGUAGUUGACGAGGAGGAGGUUUAUCGAAUUUUCCGCUGAUGCCUCCAAA [C16U G59C G62U]	< 1e-05 s⁻¹

For the variant shown here, AUAAAAGCGCCCGAACUACAGAAAUGUAGUUGACGAGGAGGAGGUAUAUCGAAUUUUCGGCGGAUGCCUCCAAA [A12C U46A] , give the reported self-cleavage kobs at 640 uM GlcN6P.
0.000302 s⁻¹

I have this variant here, AUAAAAGCGCCAGAACUACAGAAAUGUACUUGACGAGGAAGAGUUUUAUCGAAUUUUCGGCGGGUGCCUCCAAA [G29C G40A G44U A64G] , and I need its recorded self-cleavage kobs at 640 uM GlcN6P.
< 1e-05 s⁻¹

Would you mind telling me what self-cleavage kobs at 640 uM GlcN6P value was observed for AUAAAAGCGCGAGAACUACAGAAAUGUAGUUGACGAGGAGGAAGUUUAUCGAAUUUUCGGCGGAUGCCUCCAAA [C11G G43A] ?
< 1e-05 s⁻¹

Entry under review: AUAAAAGCGCUAGAACUACAGAAAUGUAGUUCACGAGGAGGAGGUUUAUCGAAUGUUCGGCGGCUGCCUCCAAA [C11U G32C U55G A64C] . Reported self-cleavage kobs at 640 uM GlcN6P?
< 1e-05 s⁻¹

Would you mind telling me what self-cleavage kobs at 640 uM GlcN6P value was observed for AUAAAAGCGCCAGAACUACAGAAAUGUAGUUGACGAGGAGCAGGUUUAUCGAAUUUUCGGCGGAUGCCACCAAA [G41C U69A] ?
< 1e-05 s⁻¹

Fill blank: measured self-cleavage kobs at 640 uM GlcN6P of the variant AUAAAAGAGCCAAAACUACAGAAAUGUAGUUGACGAGGAGGAGGUUUAUCGAAUUUUCGGUCGAUGCCUACAAA [C8A G13A C61U G62C C70A] is ____.
< 1e-05 s⁻¹
